- System: Cabbage armyworm (Leucania separate Walker)
- protocolDescription: Test 2 Insecticidal Activity against Cabbage armyworm
- Format: in vivo
- protocolConditions: 72 h; 31.3 ppm, 3 days
experimentalEndpoint: mortality at 31.3 ppm

The cases that follow already have their mortality at 31.3 ppm on record.
- molecule: "CCOP(=S)(OCC)Oc1nc2sc(Br)c(CC)n2n1"
  targetUnderTest: "Cabbage armyworm (Leucania separate Walker)"
  mortality at 31.3 ppm: "100%"
- molecule: "CCc1c(Br)sc2nc(OP(=S)(OC(C)C)OC(C)C)nn12"
  targetUnderTest: "Cabbage armyworm (Leucania separate Walker)"
  mortality at 31.3 ppm: "100%"
- molecule: "CCOP(=S)(OCC)Oc1nc2scc(C)n2n1 [Comparison compound, reference compound]"
  targetUnderTest: "Cabbage armyworm (Leucania separate Walker)"
  mortality at 31.3 ppm: "100%"

Moving on to another molecule below.
Request: Reported mortality at 31.3 ppm, molecule `CCc1c(Br)sc2nc(OP(=S)(OC)OC)nn12` : ____
Result: 100%

---

- protocolDescription: Toxicity Test 1, acute oral toxicity
- protocolConditions: mouse, in vivo, po; mice, stomach tube, 25% aqueous gum arabic, 2 weeks (Table 7)
experimentalEndpoint: LD50 at 336 h

Field: example entries. Status: answers known.
- molecule: "CCc1c(Br)sc2nc(OP(=S)(OC(C)C)OC(C)C)nn12 [drawing 12]"
  experimentalEndpoint: "LD50 at 336 h"
  observedValue: "> 200 mg/kg"
- molecule: "CCOP(=S)(OCC)Oc1nc2sc(Br)c(CC)n2n1"
  experimentalEndpoint: "LD50 at 336 h"
  observedValue: "280 mg/kg"
- molecule: "CCOP(=S)(OCC)Oc1nc2scc(C)n2n1 [Comparison compound, reference compound]"
  experimentalEndpoint: "LD50 at 336 h"
  observedValue: "33 to 50 mg/kg"

Now for another entry.
Request: Endpoint output: LD50 at 336 h of CCc1c(Br)sc2nc(OP(=S)(OC)OC)nn12 [drawing 11] . Value?
Result: > 200 mg/kg

---

- protocolDescription: Toxicity Test 2, medium tolerated limit in carp
- Format: in vivo, Cyprinus carpio
- protocolConditions: water, 48 hrs, read-out: medium tolerance limit (48 hrs) for carp
experimentalEndpoint: LC50 at 48 h (µg/mL)
Kindly answer with a numeric value in µg/mL, unit omitted.

Request: # LC50 at 48 h lookup, item `CCOP(=S)(OCC)Oc1nc2sc(Br)c(CC)n2n1`
Result: 18.5

---

- protocolDescription: Toxicity Test 2, medium tolerated limit in carp
- Assay type: in vivo, Cyprinus carpio
- protocolConditions: water, 48 hours (Table 8), read-out: TLm (medium tolerated limit)
Consider the following molecules and their measured LC50 at 48 h readings.

Please review the entries below; each comes with its answer.
- molecule: "CCc1c(Br)sc2nc(OP(=S)(OC)OC)nn12 [drawing 15]"
  LC50 at 48 h: "> 5 µg/mL"
- molecule: "CCc1c(Br)sc2nc(OP(=S)(OC(C)C)OC(C)C)nn12 [drawing 16]"
  LC50 at 48 h: "> 5 µg/mL"

Next molecule, please.
Request: Can you share its LC50 at 48 h? I mean this molecule: CCOP(=S)(OCC)Oc1nc2scc(C)n2n1 [Comparison compound, reference compound]
Result: < 0.5 µg/mL
